# MEASURED TARGET: T1, cynomolgus macaque (Macaca fascicularis) CD39 (Macaca fascicularis, UniProt P49961 7-510 (human entry))
# T1 construct: On engineered CHO cells and on primary cyno B cells and monocytes; also called cyno CD39; cCD39
# T1 chain: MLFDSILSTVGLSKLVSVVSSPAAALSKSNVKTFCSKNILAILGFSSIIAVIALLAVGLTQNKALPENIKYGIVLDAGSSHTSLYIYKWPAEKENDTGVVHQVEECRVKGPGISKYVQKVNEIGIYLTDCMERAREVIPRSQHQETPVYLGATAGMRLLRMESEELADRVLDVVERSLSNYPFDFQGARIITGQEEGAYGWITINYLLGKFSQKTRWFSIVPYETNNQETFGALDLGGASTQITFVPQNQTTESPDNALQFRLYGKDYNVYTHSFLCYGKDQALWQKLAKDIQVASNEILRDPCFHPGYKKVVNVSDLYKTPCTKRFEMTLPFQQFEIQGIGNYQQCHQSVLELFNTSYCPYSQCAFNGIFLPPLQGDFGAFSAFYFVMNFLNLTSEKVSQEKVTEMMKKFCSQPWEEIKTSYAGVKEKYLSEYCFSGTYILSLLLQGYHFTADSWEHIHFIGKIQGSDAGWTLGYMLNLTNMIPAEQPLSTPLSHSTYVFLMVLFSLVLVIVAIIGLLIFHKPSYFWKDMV
# METHOD DESCRIPTION: flow cytometry, 100 nM IgG, MFI on CHO-cCD39 / MFI on parental CHO;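 also: antibodies bound to the cells for 30 min in PBS, then bound IgG was revealed with a fluorescent goat anti-human IgG secondary antibody, 20 min on ice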

[
  {
    "BINDER": "27568 (antibody, human IgG4 S228P, kappa, V domains shown) VH: QVQLVQSGAEVKKPGSSVKVPCKASGGTFSSYAISWVRQAPEQGLEWMGSIIPIFGTANYAQKFQGRVTITADESTSTAYMELSSLRSEDTAVYYCAGESGGYRDHKLDVWGQGTVVTVSS VL: EIVLTQSPATLSLSPGERATLSCRASQSVSSYLAWYQQKPGQAPRLLIYDASNRATGIPARFSGSGSGTDFTLTISSLEPEDFAVYYCQQSVFWPITFGGGTKVEIKR",
    "Cell Binding (FOB), fold over background": 260
  },
  {
    "BINDER": "27549 (antibody, human IgG4 S228P, kappa, V domains shown) VH: QVQLVESGGGVVQPGRSLRLSCAASGFTFSSYGMNWVRQAPGKGLEWVAVIWYDGSNKYYADSVKGRFTISRDNSKNTLYLQMNSLRAEDTAVYYCARDLGGYSYGEPYYYYYGMDVWGQGTTVTVSS VL: EIVLTQSPGTLSLSPGERATLSCRASQSVSSDYLAWYQQKPGQAPRLLIYGASSRATGIPDRFSGSGSGTDFTLTISRLEPEDFAVYYCQQAHSSPYTFGGGTKVEIKR",
    "Cell Binding (FOB), fold over background": 566
  },
  {
    "BINDER": "27590 (antibody, V domains shown) VH: QVQLVQSGAEVKKPGSSVKVSCKASGGTFSNYAISWVRQAPGQGLEWMGGIIPIFGTANYAQKFQGRVTITADESTSTAYMELSSLRSEDTAVYYCARGPTVTATTSIGTHNWFDPWGQGTLVTVSS VL: EIVLTQSPATLSLSPGERATLSCRASQSVSSYLAWYQQKPGQAPRLLIYDASNRATGIPARFSGSGSGTDFTLTISSLEPEDFAVYYCQQRNFYPPTFGGGTKVEIK",
    "Cell Binding (FOB), fold over background": 44
  }
]
